- System: Strain WW2 whole cells
- test name: Whole cell oxygen uptake with indole and related substrates (Clark electrode oxygraph)
- Format: cell-based, Pseudomonas putida
- assay setup: substrate 0.6 mM; indole-dependent rate defined as 100%
observation type: Relative % (oxygen uptake rate) (%)

[[record]]
molecule = "Oc1c[nH]c2ccccc12 [Indoxyl, 3-hydroxyindole]"
endpoint_unit = "%"
comparator = "="
number = 177

[[record]]
molecule = "Cc1cccc2cc[nH]c12 [7-Me-Indole]"
endpoint_unit = "%"
comparator = "="
number = 39

[[record]]
molecule = "c1ccc2occc2c1 [2,3-Benzofuran]"
endpoint_unit = "%"
comparator = "="
number = 30

[[record]]
molecule = "Fc1ccc2[nH]ccc2c1 [5-F-Indole, 5-fluoroindole]"
endpoint_unit = "%"
comparator = "="
number = 50

[[record]]
molecule = "Nc1ccccc1C(=O)O [Anthranilate, Anthranilic acid]"
endpoint_unit = "%"
comparator = "<"
number = 1

[[record]]
molecule = "c1ccc2[nH]ccc2c1 [Indole]"
endpoint_unit = "%"
comparator = "="
number = 100

[[record]]
molecule = "c1ccc2sccc2c1 [Thianaphthene]"
endpoint_unit = "%"
comparator = "="
number = 26

[[record]]
molecule = "c1ccc2ccccc2c1 [Naphthalene]"
endpoint_unit = "%"
comparator = "="
number = 9

